Collected recombinant UMI read abundance (log10) values appear next to each entry.
Assay: recombinant UMI read abundance after kanamycin selection (control-corrected) (log10(CPM+1)); higher = more efficient recombination; extreme values may be limits of the assay; sequences stand for … in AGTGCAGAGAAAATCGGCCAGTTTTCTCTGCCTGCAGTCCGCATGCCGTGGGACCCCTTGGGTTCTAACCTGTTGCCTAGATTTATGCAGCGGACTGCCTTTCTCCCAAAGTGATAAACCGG…AGGTTGGTTTCACT; site = the 11-nt donor;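 further: IS621 bridge recombinase in Escherichia coli cells against a fixed T5 target plasmid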

| biosequence | recombinant UMI read abundance (log10) |
| --- | --- |
| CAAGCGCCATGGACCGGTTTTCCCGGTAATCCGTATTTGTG (site CATGCGCCTCA) | 0.047 |
| AATGGTGCATGGACCGGTTTTCCCGGTAATCCGTATTTGGT (site AATGGTGCTAC) | 1.04 |
| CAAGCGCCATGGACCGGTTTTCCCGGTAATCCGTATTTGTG (site AAAGCGCCTCA) | 0.0176 |

query: Which recombinant UMI read abundance (log10) reading was recorded for the sequence CTGAAAACATGGACCGGTTTTCCCGGTAATCCGTATTTGCA (site CTGCAAACTTG) ?
result: 0

query: Consider the sequence GGGGCACCATGGACCGGTTTTCCCGGTAATCCGTATTTGCT (site GGGGCACCTAG) and give its measured recombinant UMI read abundance (log10).
result: 0

query: Tell me the measured recombinant UMI read abundance (log10) of TCCACCTCATGGACCGGTTTTCCCGGTAATCCGTATTTGCG (site TCCACCTCTCG) , please.
result: 0.0255
